# system.name: ATP-dependent translocase ABCB1 (Homo sapiens)
# Sequence (P08183 whole entry): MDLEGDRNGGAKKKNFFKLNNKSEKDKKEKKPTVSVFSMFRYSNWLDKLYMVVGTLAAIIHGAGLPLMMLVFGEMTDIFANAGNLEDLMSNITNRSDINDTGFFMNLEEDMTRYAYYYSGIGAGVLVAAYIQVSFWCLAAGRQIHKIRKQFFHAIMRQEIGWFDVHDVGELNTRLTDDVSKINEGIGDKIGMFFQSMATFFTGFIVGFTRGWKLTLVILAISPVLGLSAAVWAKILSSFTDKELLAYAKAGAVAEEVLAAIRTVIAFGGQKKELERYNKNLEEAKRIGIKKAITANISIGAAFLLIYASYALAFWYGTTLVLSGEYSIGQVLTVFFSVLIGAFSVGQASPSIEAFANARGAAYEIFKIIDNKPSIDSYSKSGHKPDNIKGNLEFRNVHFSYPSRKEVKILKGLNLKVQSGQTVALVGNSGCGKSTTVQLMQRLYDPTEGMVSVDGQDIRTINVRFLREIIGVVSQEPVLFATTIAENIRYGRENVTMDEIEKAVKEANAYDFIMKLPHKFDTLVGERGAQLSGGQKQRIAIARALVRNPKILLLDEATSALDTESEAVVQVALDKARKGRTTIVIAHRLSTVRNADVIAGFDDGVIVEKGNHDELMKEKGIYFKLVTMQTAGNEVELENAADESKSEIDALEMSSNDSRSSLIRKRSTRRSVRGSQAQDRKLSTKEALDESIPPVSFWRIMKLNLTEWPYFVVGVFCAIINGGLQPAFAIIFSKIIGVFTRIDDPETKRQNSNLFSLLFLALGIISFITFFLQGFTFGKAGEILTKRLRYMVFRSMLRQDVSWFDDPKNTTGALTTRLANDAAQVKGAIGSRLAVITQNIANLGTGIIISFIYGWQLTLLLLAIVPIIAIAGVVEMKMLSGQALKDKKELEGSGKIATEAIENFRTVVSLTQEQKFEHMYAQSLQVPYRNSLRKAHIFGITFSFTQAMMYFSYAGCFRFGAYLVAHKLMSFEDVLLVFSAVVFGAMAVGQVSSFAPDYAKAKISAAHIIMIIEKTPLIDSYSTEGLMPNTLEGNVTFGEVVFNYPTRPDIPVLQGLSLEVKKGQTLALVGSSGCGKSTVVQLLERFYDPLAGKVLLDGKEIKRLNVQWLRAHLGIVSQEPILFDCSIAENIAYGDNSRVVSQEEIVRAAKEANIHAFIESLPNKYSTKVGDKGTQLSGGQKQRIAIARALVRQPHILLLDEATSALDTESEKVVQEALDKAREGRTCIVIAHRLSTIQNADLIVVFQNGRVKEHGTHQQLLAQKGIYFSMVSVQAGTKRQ
# assay.info: TP_TRANSPORTER: inhibition of Rhodamine 123 transepithelial transport (basal to apical) (R123: 5 uM) in Caco-2 cells
value.type: IC50 (µM)
Numbers only, in µM.

GET /value?item= CCc1nn(CCCN2CCN(c3cccc(Cl)c3)CC2)c(=O)n1CCOc1ccccc1 [NEFAZODONE] &field=IC50 returns 4.7
